Quick list: Cl (iv) per entry.
test-name: Plasma pharmacokinetics studies on rats
conditions-used: rats; iv dosing 1 mg/kg

{"columns": ["compound", "Cl (iv) [mL/min/kg]"],
 "data": [
  ["COCCN(C(=O)Nc1ccc(-c2ncnc3[nH]c(C)c(C)c23)cc1F)c1ccc(Cl)cc1 [Compound 18x]", 6.9],
  ["Cc1[nH]c2ncnc(-c3ccc(NC(=O)N(CCN(C)C)c4ccc(Cl)cc4)c(F)c3)c2c1C [Compound 18w]", 14.2],
  ["COc1ccc(N(CCO)C(=O)Nc2ccc(-c3ncnc4[nH]cc(C)c34)cc2)cc1 [Compound 18n]", 2.1],
  ["Cc1c[nH]c2ncnc(-c3ccc(NC(=O)N(CCO)c4ccc(Cl)cc4)cc3)c12 [Compound 18h]", 3.0],
  ["Cc1[nH]c2ncnc(-c3ccc(NC(=O)N(CCO)c4ccc(Cl)cc4)c(F)c3)c2c1C [Compound 18s]", 4.5],
  ["Cc1c[nH]c2ncnc(-c3ccc(NC(=O)N(CCO)c4ccccc4)cc3)c12 [Compound 18b]", 5.2],
  ["Cc1c[nH]c2ncnc(-c3ccc(NC(=O)Nc4ccccc4)cc3)c12 [Compound 10a]", 3.4],
  ["Cc1c[nH]c2ncnc(-c3ccc(NC(=O)N(CCN(C)C)c4ccc(Cl)cc4)cc3)c12 [Compound 18r]", 42.2]
]}

----------
test-name: Microsomal stability, rat liver microsomes
Assay type: in vitro ADME
conditions-used: rat liver microsomes
assay-metric: Microsomal Stability t1/2 (min) Rat

{"columns": ["compound", "censor-symbol", "measurement"],
 "data": [
  ["COc1ccc(N(CCO)C(=O)Nc2ccc(-c3ncnc4[nH]cc(C)c34)cc2)cc1 [Compound 18n]", "=", 40],
  ["Cc1[nH]c2ncnc(-c3ccc(NC(=O)N(CCO)c4ccc(Cl)cc4)c(F)c3)c2c1C [Compound 18s]", "=", 44],
  ["Cc1[nH]c2ncnc(-c3ccc(NC(=O)N(CCN)c4ccc(Cl)cc4)c(F)c3)c2c1C [Compound 18t]", ">", 120],
  ["Cc1c[nH]c2ncnc(-c3ccc(NC(=O)N(CCO)c4ccc(F)cc4)cc3)c12 [Compound 18e]", "=", 52]
]}

----------
test-name: Plasma pharmacokinetics studies on rats
conditions-used: read-out: Cmax (iv); rats; iv dosing 1 mg/kg
Mark class 1 only when Cmax stays strictly below 5 µM. Values equal to the cut-off are class 0.

{"columns": ["compound", "class-label"],
 "data": [
  ["Cc1[nH]c2ncnc(-c3ccc(NC(=O)N(CCO)c4ccc(Cl)cc4)c(F)c3)c2c1C [Compound 18s]", "class 0"],
  ["Cc1c[nH]c2ncnc(-c3ccc(NC(=O)Nc4ccccc4)cc3)c12 [Compound 10a]", "class 0"],
  ["Cc1c[nH]c2ncnc(-c3ccc(NC(=O)N(CCN(C)C)c4ccc(Cl)cc4)cc3)c12 [Compound 18r]", "class 1"],
  ["COc1ccc(N(CCN)C(=O)Nc2ccc(-c3ncnc4[nH]cc(C)c34)cc2)cc1 [Compound 18o]", "class 1"],
  ["Cc1[nH]c2ncnc(-c3ccc(NC(=O)N(CCN(C)C)c4ccc(Cl)cc4)c(F)c3)c2c1C [Compound 18w]", "class 1"],
  ["Cc1c[nH]c2ncnc(-c3ccc(NC(=O)N(CCN)c4ccc(Cl)cc4)cc3)c12 [Compound 18p]", "class 1"],
  ["Cc1c[nH]c2ncnc(-c3ccc(NC(=O)N(CCO)c4ccc(Cl)cc4)cc3)c12 [Compound 18h]", "class 0"],
  ["Cc1c[nH]c2ncnc(-c3ccc(NC(=O)N(CCO)c4ccccc4)cc3)c12 [Compound 18b]", "class 0"],
  ["Cc1c[nH]c2ncnc(-c3ccc(NC(=O)N(CCO)c4ccccc4Cl)cc3)c12 [Compound 18f]", "class 1"],
  ["COc1ccc(N(CCO)C(=O)Nc2ccc(-c3ncnc4[nH]cc(C)c34)cc2)cc1 [Compound 18n]", "class 0"],
  ["Cc1c[nH]c2ncnc(-c3ccc(NC(=O)Nc4cccc(C(=O)NC(C)C)c4)cc3)c12", "class 0"],
  ["Cc1ccc(N(CCO)C(=O)Nc2ccc(-c3ncnc4[nH]cc(C)c34)cc2)cc1 [Compound 18k]", "class 0"],
  ["COCCN(C(=O)Nc1ccc(-c2ncnc3[nH]c(C)c(C)c23)cc1F)c1ccc(Cl)cc1 [Compound 18x]", "class 1"]
]}

----------
target-or-test-system: Limk1 (Homo sapiens, UniProt P53667)
Sequence (P53667 285-638): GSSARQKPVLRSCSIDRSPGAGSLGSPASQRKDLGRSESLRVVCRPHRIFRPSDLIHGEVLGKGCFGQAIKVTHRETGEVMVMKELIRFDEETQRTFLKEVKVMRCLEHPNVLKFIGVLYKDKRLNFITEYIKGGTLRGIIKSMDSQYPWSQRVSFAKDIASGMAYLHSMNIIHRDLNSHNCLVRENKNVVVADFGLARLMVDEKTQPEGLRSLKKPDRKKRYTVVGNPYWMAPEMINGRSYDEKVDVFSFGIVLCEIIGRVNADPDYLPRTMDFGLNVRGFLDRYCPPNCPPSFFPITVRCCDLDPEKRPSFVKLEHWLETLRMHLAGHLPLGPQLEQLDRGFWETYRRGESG
test-name: Limk1 biochemical assay (Reaction Biology, 10-dose IC50)
Parameters: His; purchased Reaction Biology Corporation; host or cells: insect cells
conditions-used: read-out: Limk1 IC50
Listing of entries alongside the reported IC50.

{"columns": ["compound", "IC50"],
 "data": [
  ["COC(=O)c1ccc2[nH]c(C3CCN(c4ncnc5[nH]cc(Cl)c45)CC3)nc2c1 [Compound R10015]", "~38 nM"],
  ["COc1ccc(NC(=O)N(C)c2ccc(-c3ncnc4[nH]cc(C)c34)cc2)cc1 [Compound 14a]", "1090 nM"],
  ["Cc1c[nH]c2ncnc(-c3ccc(NC(=O)Nc4cccc(C(=O)NC(C)C)c4)c(C(F)(F)F)c3)c12 [Compound 7j]", "60 nM"],
  ["Cc1c[nH]c2ncnc(-c3ccc(NC(=O)Nc4cccc(C(=O)NC(C)C)c4)c(F)c3)c12 [Compound 7k]", "18 nM"],
  ["Cc1c[nH]c2ncnc(-c3ccc(NC(=O)Nc4ccccc4)cc3)c12 [Compound 10a]", "142 nM"],
  ["COc1ccccc1NC(=O)Nc1ccc(-c2ncnc3[nH]cc(C)c23)cc1 [Compound 10c]", "283 nM"],
  ["CC(C)NC(=O)c1cccc(NC(=O)Nc2ccc(-c3ncnc4[nH]ccc34)cc2)c1 [Compound 3]", "201 nM"],
  ["Cc1c[nH]c2ncnc(-c3ccc(NC(=O)Nc4cccc(F)c4)cc3)c12 [Compound 10b]", "315 nM"],
  ["Cc1c[nH]c2ncnc(-c3ccc(NC(=O)N(CCN(C)C)c4ccc(Cl)cc4)cc3)c12 [Compound 18r]", "~20 nM"]
]}

----------
target-or-test-system: UniProt Q13464
Sequence (Q13464 whole entry, species assumed): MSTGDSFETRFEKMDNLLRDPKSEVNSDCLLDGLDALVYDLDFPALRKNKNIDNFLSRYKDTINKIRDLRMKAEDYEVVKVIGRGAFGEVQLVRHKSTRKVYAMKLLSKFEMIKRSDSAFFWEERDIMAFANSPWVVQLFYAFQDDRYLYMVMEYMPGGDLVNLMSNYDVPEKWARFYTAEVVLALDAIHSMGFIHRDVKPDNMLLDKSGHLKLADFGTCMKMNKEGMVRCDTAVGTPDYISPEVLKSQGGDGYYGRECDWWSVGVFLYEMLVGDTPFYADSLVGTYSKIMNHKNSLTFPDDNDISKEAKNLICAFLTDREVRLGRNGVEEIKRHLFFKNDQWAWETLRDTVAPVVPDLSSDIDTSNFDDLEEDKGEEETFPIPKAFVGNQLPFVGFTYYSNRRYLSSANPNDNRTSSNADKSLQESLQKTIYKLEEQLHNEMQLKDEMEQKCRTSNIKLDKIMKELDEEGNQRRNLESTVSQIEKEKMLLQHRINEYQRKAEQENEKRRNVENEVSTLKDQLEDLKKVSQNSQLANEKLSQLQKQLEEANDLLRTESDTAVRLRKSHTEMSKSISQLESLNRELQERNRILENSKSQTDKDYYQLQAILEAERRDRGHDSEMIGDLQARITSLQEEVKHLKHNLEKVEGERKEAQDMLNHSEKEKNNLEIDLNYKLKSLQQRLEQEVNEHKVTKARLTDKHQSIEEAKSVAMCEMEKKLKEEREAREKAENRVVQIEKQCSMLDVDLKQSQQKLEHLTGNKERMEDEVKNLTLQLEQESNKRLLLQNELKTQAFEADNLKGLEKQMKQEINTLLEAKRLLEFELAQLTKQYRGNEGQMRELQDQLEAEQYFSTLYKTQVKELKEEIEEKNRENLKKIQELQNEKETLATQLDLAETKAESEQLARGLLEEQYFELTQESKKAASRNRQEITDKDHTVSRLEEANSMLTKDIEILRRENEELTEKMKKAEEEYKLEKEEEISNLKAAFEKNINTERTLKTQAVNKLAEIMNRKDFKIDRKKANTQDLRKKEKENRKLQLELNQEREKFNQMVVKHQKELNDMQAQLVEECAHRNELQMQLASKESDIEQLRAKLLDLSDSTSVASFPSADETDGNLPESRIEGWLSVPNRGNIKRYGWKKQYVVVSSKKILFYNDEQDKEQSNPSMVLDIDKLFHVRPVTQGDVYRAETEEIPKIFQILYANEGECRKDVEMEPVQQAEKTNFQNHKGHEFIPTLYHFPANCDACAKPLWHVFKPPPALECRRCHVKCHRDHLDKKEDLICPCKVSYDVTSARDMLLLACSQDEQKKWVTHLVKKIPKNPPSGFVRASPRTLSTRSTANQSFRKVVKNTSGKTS
test-name: ROCK-I biochemical counter-screen
conditions-used: Table 6; read-out: Biochemical Inhibition IC50 (nM) ROCK-I
Note to self: use 1 only for IC50 readings below 6000 nM; a reading exactly at 6000 nM still gets 0.

{"columns": ["compound", "class-label"],
 "data": [
  ["Cc1[nH]c2ncnc(-c3ccc(NC(=O)Nc4cccc(C(=O)NC(C)C)c4)cc3)c2c1C [Compound 7i]", 0],
  ["COc1cccc(N(CCO)C(=O)Nc2ccc(-c3ncnc4[nH]cc(C)c34)cc2)c1 [Compound 18m]", 1],
  ["Cc1c[nH]c2ncnc(-c3ccc(NC(=O)N(CCO)c4ccccc4Cl)cc3)c12 [Compound 18f]", 1],
  ["Cc1c[nH]c2ncnc(-c3ccc(NC(=O)Nc4cccc(C(=O)NC(C)C)c4)c(F)c3)c12 [Compound 7k]", 1],
  ["Cc1ccc(N(CCO)C(=O)Nc2ccc(-c3ncnc4[nH]cc(C)c34)cc2)cc1 [Compound 18k]", 0],
  ["Cc1c[nH]c2ncnc(-c3ccc(NC(=O)N(CCO)c4ccccc4)cc3)c12 [Compound 18b]", 1],
  ["Cc1c[nH]c2ncnc(-c3ccc(NC(=O)N(CCO)c4ccc(F)cc4)cc3)c12 [Compound 18e]", 1],
  ["Cc1c[nH]c2ncnc(-c3ccc(NC(=O)N(CCO)c4cccc(Cl)c4)cc3)c12 [Compound 18g]", 0],
  ["COc1ccc(N(CCO)C(=O)Nc2ccc(-c3ncnc4[nH]cc(C)c34)cc2)cc1 [Compound 18n]", 0]
]}

----------
test-name: Microsomal stability, rat liver microsomes
Type: in vitro ADME
conditions-used: rat liver microsomes
assay-metric: Microsomal Stability t1/2 (min) Rat

{"columns": ["compound", "censor-symbol", "measurement"],
 "data": [
  ["Cc1c[nH]c2ncnc(-c3ccc(NC(=O)Nc4cccc(C(=O)NC(C)C)c4)c(F)c3)c12", "=", 55],
  ["COCCN(C(=O)Nc1ccc(-c2ncnc3[nH]c(C)c(C)c23)cc1F)c1ccc(Cl)cc1 [Compound 18x]", "=", 13],
  ["Cc1[nH]c2ncnc(-c3ccc(NC(=O)N(CCN(C)C)c4ccc(Cl)cc4)c(F)c3)c2c1C [Compound 18w]", "=", 23],
  ["COc1cccc(N(CCO)C(=O)Nc2ccc(-c3ncnc4[nH]cc(C)c34)cc2)c1 [Compound 18m]", "=", 21],
  ["Cc1[nH]c2ncnc(-c3ccc(NC(=O)Nc4cccc(C(=O)NC(C)C)c4)cc3)c2c1C", ">", 120],
  ["Cc1c[nH]c2ncnc(-c3ccc(NC(=O)N(CCO)c4ccc(Cl)cc4)cc3)c12 [Compound 18h]", "=", 73],
  ["Cc1c[nH]c2ncnc(-c3ccc(NC(=O)N(CCO)c4ccccc4)cc3)c12 [Compound 18b]", "=", 30],
  ["Cc1ccc(N(CCO)C(=O)Nc2ccc(-c3ncnc4[nH]cc(C)c34)cc2)cc1 [Compound 18k]", "=", 39]
]}
